Below, each entry is listed alongside its reported GI50.
System: SK-MEL-5
Assay: NCI tumour cell line growth inhibition, 48 h
The source made the active and inactive calls. Cut-off read from the data, not from the text of the source: active = GI50 up to about 1.1 µM and inactive = higher.

compound: CC1=C(/C=C/C(C)=C/C=C/C(C)=C/C(=O)OCC2OC(n3cc(F)c(=O)[nH]c3=O)CC2OC(=O)/C=C(C)/C=C/C=C(C)/C=C/C2=C(C)CCCC2(C)C)C(C)(C)CCC1 (centres undefined)
GI50: 3.08 µM (inactive)

compound: FC(F)(F)c1ccc2nc(Sc3ccc4ccccc4c3)cnc2c1
GI50: 28.1 µM (inactive)

compound: O=C1CC[C@@H](S(=O)(=O)c2ccccc2)[C@H](/C=C/c2ccccc2)O1
GI50: > 100 µM (inactive)

compound: COc1cc(/C=C2\C[C@H]3[C@@H]4CC=C5C[C@@H](O)CC[C@]5(C)[C@H]4CC[C@]3(C)C2=O)cc(OC)c1OC
GI50: 12.5 µM (inactive)

* * *

Listing of entries alongside the reported GI50.
Test system: CCRF-CEM
Test: NCI tumour cell line growth inhibition, 48 h
Calls of active or inactive are those of the source. No stated cut-off is given here; in the data, active = GI50 up to about 1.1 µM and inactive = higher.

molecule: O=C(CCc1cc(-c2ccc(F)cc2)n[nH]1)N(Cc1ccccc1)Cc1ccccc1
GI50: > 100 µM (inactive)

molecule: O=[N+]([O-])c1ccc(NC2OCC(O)C(O)C2O)cc1 (stereo not given)
GI50: > 100 µM (inactive)

molecule: CN1CC[N+](C)=C1c1ccccc1
GI50: > 100 µM (inactive)

molecule: Cn1cc2ccccc2c1-c1nc(F)nc(OCC(=O)[C@H]2CCC3[C@@H]4CCC5=CC(=O)CC[C@]5(C)C4[C@@H](O)C[C@@]32C)n1 (stereo not given in full)
GI50: 4.31 µM (inactive)

molecule: COc1ccc(-c2cc(-c3ccccc3)nc(N)c2-c2ccc3ccccc3c2)cc1
GI50: 3.13 µM (inactive)

molecule: CSc1ccc(NC(=S)NN(C)C)cc1
GI50: > 10 µM (inactive)

molecule: OCC(O)C(OC1OC(CO)C(O)C(O)C1O)c1nn(-c2ccccc2)c2nc3cc(Cl)c(Cl)cc3cc12 (stereo not given)
GI50: > 100 µM (inactive)

molecule: Clc1ncnc2c1nc(C#Cc1ccccc1)n2Cc1ccccc1
GI50: 3.78 µM (inactive)

molecule: CCCCC(=O)Nc1ccc2cc(C(=O)OC)c(Cl)nc2n1
GI50: > 100 µM (inactive)

molecule: Nc1ncnc2c1ncn2C1OC(CO)C(O)C1NS(=O)(=O)c1ccccc1 (stereo not given)
GI50: > 100 µM (inactive)

* * *

Test system: CAKI-1
Experiment: NCI tumour cell line growth inhibition, 48 h
The source made the active and inactive calls. Rule as the data show it: active = GI50 up to about 1.1 µM and inactive = higher.

compound: C[C@@H](CC(=O)O)OC1OC(COC(=O)C(C)(C)C)C(OC(=O)C(C)(C)C)C(OC(=O)C(C)(C)C)C1OC(=O)C(C)(C)C (stereo not given in full)
GI50: 62.2 µM (inactive)
--
compound: O=C1NCCCNCCCNCCCNC(=O)c2cccc1n2
GI50: > 100 µM (inactive)
--
compound: CC(=O)OCC1OC(N2C(C)=C(C(C)=O)C(c3ccco3)C(C#N)=C2S)C(OC(C)=O)C(OC(C)=O)C1OC(C)=O (stereo not given)
GI50: > 100 µM (inactive)
--
compound: COc1ccc(Nc2nc3c(N)cc(C(F)(F)F)cc3nc2-c2ccccc2)cc1OC
GI50: 22.6 µM (inactive)
--
compound: O=C1/C(=C/c2cccc3ccccc23)Cc2ccccc21
GI50: 25.6 µM (inactive)
--
compound: O=C(O)CCC(=O)OCN1C(=O)C2C3C=CC(C2C1=O)C1C2C(=O)N(COC(=O)CCC(=O)O)C(=O)C2C31 (stereo not given)
GI50: > 100 µM (inactive)
--
compound: O=C(CC1(O)C(=O)Nc2c(Cl)cc(Cl)cc21)c1ccc2ccccc2c1 (stereo not given)
GI50: 5.7 µM (inactive)
--
compound: Cn1cnc([N+](=O)[O-])c1Sc1nncc2[nH]cnc12
GI50: > 100 µM (inactive)
--
compound: CCOC(=O)c1cc(=O)n(C)c(=O)n1C
GI50: > 100 µM (inactive)
--
compound: NC1=CN(CCCO)C2=N/C(=C\c3ccccc3)C(=O)N12
GI50: > 100 µM (inactive)

* * *

Below: a set of entries, each annotated with reported GI50.
Test system: NCI-H226
Experiment: NCI tumour cell line growth inhibition, 48 h
The source made the active and inactive calls. Cut-off read from the data, not from the text of the source: active = GI50 up to about 1.1 µM and inactive = higher. Where a SMILES comes first, the peptide text is derived from it. The star is where a group is joined. Boc = CC(C)(C)OC(=O)*

compound: Cc1ccc(CC(Cc2ccc(C)cc2C(=O)O)C(=O)O)cc1 (centres undefined)
GI50: > 100 µM (inactive)
//
compound: CCC1NC(=O)C(NC(=O)c2ncccc2O)C(C)OC(=O)C(c2ccccc2)NC(=O)C2CC(=O)CCN2C(=O)C(Cc2ccccc2)N(C)C(=O)C2CCCN2C1=O (centres undefined)
GI50: > 100 µM (inactive)
//
compound: COC(=O)C1(C(=O)OC)CC2=C(S(=O)(=O)c3ccccc3)C[C@@H](C#N)[C@H]2C1
GI50: > 100 µM (inactive)
//
compound: COc1ccc(C2SCC(=O)N2NC2=NC(=O)CC(=O)N2)cc1 (centres undefined)
GI50: > 100 µM (inactive)
//
compound: COc1cc2c(c(OC)c1)C(=O)C(=O)C(CC1(C)OCCCO1)=C2
GI50: 6.17 µM (inactive)
//
compound: COc1ccc(C(C#N)NC23CC4CC(CC(C4)C2)C3)cc1OC (centres undefined)
GI50: 79.4 µM (inactive)
//
compound: CC1Cc2c(N)nc(NN)nc2NC1=O (centres undefined)
GI50: > 100 µM (inactive)
//
compound: C=CCC(CCC(C)=O)(C(=O)OCC)C(=O)OCC
GI50: > 100 µM (inactive)
//
compound: COC(=O)C(C)NC(=O)C(CCSC)NC(=O)C(Cc1ccccc1)NC(=O)OC(C)(C)C (stereo not drawn) (Boc-Phe-Met-Ala-OMe; configuration not given here)
GI50: > 100 µM (inactive)

* * *

Tested on: SF-268
Experiment: NCI tumour cell line growth inhibition, 48 h
Calls of active or inactive are those of the source. Cut-off read from the data, not from the text of the source: active = GI50 up to about 1.1 µM and inactive = higher.
property_name: GI50

molecule: O=C(O)C1=NN=C(C(=O)O)NN1
test_value: > 100 µM (inactive)
//
molecule: C/C(=N\Nc1nc2ccccc2s1)c1cccnn1
test_value: 1.56 µM (inactive)
//
molecule: NN
test_value: 561 µM (inactive)
//
molecule: CCC1=NC(N/N=C/c2ccccc2O)=N/C1=C\c1ccccc1O
test_value: 4.98 µM (inactive)
//
molecule: O=C(Oc1ccc(Cl)cc1[N+](=O)[O-])c1ccccc1
test_value: > 100 µM (inactive)
//
molecule: C=C(COC(C)=O)CC(/C=C(\C)CC/C=C(\C)CO)OC(C)=O (stereo not drawn)
test_value: > 100 µM (inactive)
//
molecule: O=C1C(Cl)=C(NCCc2ccc(O)cc2)C(=O)c2c(O)ccc(O)c21
test_value: 9.12 µM (inactive)
//
molecule: O=C(O)c1ccccc1/N=C/c1ccc(N(CCCl)CCCl)cc1
test_value: > 72.4 µM (inactive)
//
molecule: CN(NC(=O)/C(=C/C=C/c1ccccc1)NC(=O)c1ccccc1)C1=C(Cl)C(=O)[N+](c2ccccc2)=CC1
test_value: 29.6 µM (inactive)
//
molecule: N#CCCN(CCC#N)c1ccc(C(Sc2ccccc2)C(NC(=O)c2cc([N+](=O)[O-])ccc2Cl)C(=O)Sc2ccccc2)cc1 (stereo not drawn)
test_value: 2.35 µM (inactive)
//
molecule: COC(=O)C1(C(=O)OC)CC2=C(S(=O)(=O)c3ccccc3)C[C@@H](C#N)[C@H]2C1
test_value: > 100 µM (inactive)
//
molecule: CC(=O)OCC1OC(N2C(C)=C(C(C)=O)C(c3ccco3)C(C#N)=C2S)C(OC(C)=O)C(OC(C)=O)C1OC(C)=O (stereo not drawn)
test_value: > 100 µM (inactive)
//
molecule: CC1(C)OC2OC(/C=C/[N+](=O)[O-])C3OC(C)(C)OC3C2O1 (stereo not drawn)
test_value: 19.8 µM (inactive)
//
molecule: O=c1cc(O)c2c(O)cc(O)cc2o1
test_value: > 100 µM (inactive)
//
molecule: COc1ccc(C2Oc3cc(OC)c(OC)cc3C2CCl)cc1OC (stereo not drawn)
test_value: > 100 µM (inactive)
//
molecule: CS/C(C#N)=C(\C#N)SC
test_value: 11.9 µM (inactive)
//
molecule: COc1ccc(C[N+]23C(CC[C@H]2c2ccccc2)CC[C@H]3c2ccccc2)cc1 (stereo partly drawn)
test_value: 30.3 µM (inactive)
//
molecule: CCOC(=O)/C(C(=O)Nc1ccc(F)cc1)=C(/N)N1CCOCC1
test_value: > 100 µM (inactive)
//
molecule: CC(C)NC(=O)OCc1c(COC(=O)NC(C)C)n(C)c2c1ccc1ccsc12
test_value: 4.38 µM (inactive)
//
molecule: CN(CC#N)C1CCCC[C@H]1O (stereo partly drawn)
test_value: > 100 µM (inactive)
//
molecule: CCOC(=O)C1=C(C)NC(=O)NC1c1coc2cc(C)cc(C)c2c1=O (stereo not drawn)
test_value: 57.5 µM (inactive)
//
molecule: CC1=NN(c2nc(N)nc(CC#N)n2)C(C)(C)C1
test_value: > 100 µM (inactive)
//
molecule: COc1ccc(/C=N/n2cnc3c(sc(=S)n3-c3ccccc3)c2=O)cc1
test_value: 6.28 µM (inactive)

These measurements were taken from ChEMBL document CHEMBL1201862.
